Origin of measurements: paper PMC9352680

target-system: T1, PUF4 RNA-binding domain (Saccharomyces cerevisiae, UniProt P25339 537-888)
T1 sequence: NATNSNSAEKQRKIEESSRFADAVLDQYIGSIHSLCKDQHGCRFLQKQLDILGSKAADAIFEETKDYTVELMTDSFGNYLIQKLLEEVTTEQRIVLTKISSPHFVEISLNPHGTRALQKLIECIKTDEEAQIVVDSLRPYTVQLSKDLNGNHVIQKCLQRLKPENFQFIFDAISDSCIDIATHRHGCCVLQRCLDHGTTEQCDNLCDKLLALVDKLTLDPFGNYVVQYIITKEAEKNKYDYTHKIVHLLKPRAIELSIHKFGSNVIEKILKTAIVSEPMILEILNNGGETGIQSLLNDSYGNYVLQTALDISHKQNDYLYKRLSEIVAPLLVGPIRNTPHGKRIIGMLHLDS
protocol-details: Mg; RNA-MaP; 20 mM Na-HEPES pH 7.4, 30 mM KOAc, 0.75 mM MgCl2, 0.1% Tween-20, 5% glycerol, 0.1 mg/mL BSA, 2 mM DTT; 25 C; 0.0125-409.6 nM protein
measurement-context: tags: N-His6-TEV cleaved; C-SNAP kept, Cy3B-labelled; label: tethered on chip by stalled RNA polymerase
pKd: −log10 of the molar value.
Quick reference for pKd among some binders

Illustrative cases are given below, each with its answer.
UCUCUUCCACACUAUACCUCUCUU (ssRNA) [Id_ii_S1_P3E.4_K3.3_C3.2_[T-1C]_H3.3_A3.1_F3.1_T3.2_[T9C]_[A10C]]: < 5.64
UCUCUUUGUAGCUGGUUCUCUU (ssRNA) [Ic_S1_P5E.1_K5.1_C5.1_H5.1_A5.1_[T5G]_[T6C]_[A7T]_F5.1_[T8G]_[T9G]_[A10T]_T5.1]: < 5.64
ACAAACUGCAGAUAACAAAC (ssRNA) [Ib_S3_P3E.1_K3.1_C3.1_H3.1_[T3C]_A3.1_[T5G]_F3.1_T3.1]: < 5.64
UCUCUUCUACACUAUAACUCUCUU (ssRNA) [Id_ii_S1_P3E.4_K3.3_C3.2_H3.3_A3.1_F3.1_T3.2_[T9A]_[A10C]]: < 5.64

Next, consider the following binder.
Using the record for UCUCUUUGUAUGCGCUCUCUU (ssRNA) [Ic_S1_P4E.1_K4.1_C4.1_H4.1_A4.1_[A6G]_[T7C]_F4.1_[T8G]_[A9C]_T4.1] , report its pKd. < 5.64
